target: Thrombin, from Human Plasma, high activity (human, UniProt P00734 328-622); assay: cell-based or functional assay
% inhibition at 100 µM values for the binders below.
Measured Attribute: % inhibition at 100 µM (%)

>>> result_number("ICTKSDPPYCR (HELM PEPTIDE1{I.C.T.K.S.D.P.P.Y.C.R.[dP].P}$PEPTIDE1,PEPTIDE1,2:R3-10:R3|PEPTIDE1,PEPTIDE1,1:R1-13:R2$$$V2.0; SMILES CC[C@H](C)[C@@H]1NC(=O)[C@@H]2CCCN2C(=O)[C@H]2CCCN2C(=O)[C@H](CCCNC(=N)N)NC(=O)[C@@H]2CSSC[C@H](NC1=O)C(=O)N[C@@H]([C@@H](C)O)C(=O)N[C@@H](CCCCN)C(=O)N[C@@H](CO)C(=O)N[C@@H](CC(=O)O)C(=O)N1CCC[C@H]1C(=O)N1CCC[C@H]1C(=O)N[C@@H](Cc1ccc(O)cc1)C(=O)N2) [Example 18]")
0
>>> result_number("FCTKSDPPICS (HELM PEPTIDE1{F.C.T.K.S.D.P.P.I.C.S.[dP].E}$PEPTIDE1,PEPTIDE1,2:R3-10:R3|PEPTIDE1,PEPTIDE1,1:R1-13:R2$$$V2.0; SMILES CC[C@H](C)[C@@H]1NC(=O)[C@@H]2CCCN2C(=O)[C@@H]2CCCN2C(=O)[C@H](CC(=O)O)NC(=O)[C@H](CO)NC(=O)[C@H](CCCCN)NC(=O)[C@H]([C@@H](C)O)NC(=O)[C@@H]2CSSC[C@H](NC1=O)C(=O)N[C@@H](CO)C(=O)N1CCC[C@@H]1C(=O)N[C@@H](CCC(=O)O)C(=O)N[C@@H](Cc1ccccc1)C(=O)N2) [Example 64]")
2.3
>>> result_number("RETKSDPPIRF (HELM PEPTIDE1{R.E.T.K.S.D.P.P.I.R.F.[dP].P}$PEPTIDE1,PEPTIDE1,1:R1-13:R2$$$V2.0; SMILES CC[C@H](C)[C@@H]1NC(=O)[C@@H]2CCCN2C(=O)[C@@H]2CCCN2C(=O)[C@H](CC(=O)O)NC(=O)[C@H](CO)NC(=O)[C@H](CCCCN)NC(=O)[C@H]([C@@H](C)O)NC(=O)[C@H](CCC(=O)O)NC(=O)[C@H](CCCNC(=N)N)NC(=O)[C@@H]2CCCN2C(=O)[C@H]2CCCN2C(=O)[C@H](Cc2ccccc2)NC(=O)[C@H](CCCNC(=N)N)NC1=O) [Example 7]")
0
>>> result_number("FCTKSDPPICY (HELM PEPTIDE1{F.C.T.K.S.D.P.P.I.C.Y.[dP].P}$PEPTIDE1,PEPTIDE1,2:R3-10:R3|PEPTIDE1,PEPTIDE1,1:R1-13:R2$$$V2.0; SMILES CC[C@H](C)[C@@H]1NC(=O)[C@@H]2CCCN2C(=O)[C@@H]2CCCN2C(=O)[C@H](CC(=O)O)NC(=O)[C@H](CO)NC(=O)[C@H](CCCCN)NC(=O)[C@H]([C@@H](C)O)NC(=O)[C@@H]2CSSC[C@H](NC1=O)C(=O)N[C@@H](Cc1ccc(O)cc1)C(=O)N1CCC[C@@H]1C(=O)N1CCC[C@H]1C(=O)N[C@@H](Cc1ccccc1)C(=O)N2) [Example 5]")
0.5
